I'd appreciate it if you could supply Potency values for the items below.
Assay Details: Quantitative High-Throughput drug screen in 47 multiple myeloma cell lines against the NCATS MIPE library collection: SKMM1_PLB cell viability assay (AID 1919863); further: potency means the concentration at half of the fitted maximal effect; nearly all actives have a fitted effect of over 35% in size
Stated Conditions: SKMM1 myeloma viability, CellTiter-Glo ATP, 48 h
Inconclusive results are not listed. Calls of active or inactive are those of the source. The call rests on the fitted dose curve; in most records, active means well fitted cell-killing curve with a large enough effect; inconclusive means small, poorly fitted or top-dose-only effect, or effect the other way; inactive means no such curve, though single readings can be large or run the other way.

Query (compound): CCc1cncnc1N1CCN(Cc2nc3ccc(C(F)(F)F)cc3[nH]2)CC1 ; field requested: Potency 18.7 µM (active)

Then Cc1cc2c(C(C)C)c(O)c(O)c(C=O)c2c(O)c1-c1c(C)cc2c(C(C)C)c(O)c(O)c(C=O)c2c1O ? 29.6 µM (active)

Then COc1ccc2c3n(c(=NC(=O)c4cccnc4)nc2c1OC)CCN3 ? 0.148 µM (active)

Then Nc1nc2[nH]cc(CCc3ccc(C(=O)N[C@@H](CCC(=O)O)C(=O)O)cc3)c2c(=O)[nH]1 ? 5.26 µM (active)

Then CCOC(=O)C1=C[C@]2(CC)CCCN3CCc4c(n1c1ccccc41)[C@@H]32 ? 26.4 µM (active)

Then CN[C@@H](C)C(=O)N[C@H]1CCCC[C@H]2CC[C@@H](C(=O)N[C@@H](c3ccccc3)c3cn(CCCCc4ccc(CCCCn5cc([C@@H](NC(=O)[C@@H]6CC[C@@H]7CCCC[C@H](NC(=O)[C@H](C)NC)C(=O)N76)c6ccccc6)nn5)cc4)nn3)N2C1=O ? 0.0037 µM (active)

Then CCC(C)n1ncn(-c2ccc(N3CCN(c4ccc(OC[C@H]5CO[C@](Cn6cncn6)(c6ccc(Cl)cc6Cl)O5)cc4)CC3)cc2)c1=O (some centres not stated) ? 14.8 µM (active)

Then Cc1ccc(NC(=O)c2cccc(C(C)(C)C#N)c2)cc1Nc1ccc2ncn(C)c(=O)c2c1 ? 1.66 µM (active)

Then C[C@]12CC[C@H](O)CC1=CC[C@@H]1[C@H]2CC[C@]2(C)C(c3cccnc3)=CC[C@H]12 ? 1.82 µM (active)

Then O=C(Nc1ccc(F)c(C(F)(F)F)c1)Nc1nnc(-c2ccncc2)s1 ? 8.33 µM (active)

Then CC1(C)Cc2c(-c3ccccc3)c(-c3ccc(Cl)cc3)c(CC(=O)O)n2C1 ? 20.9 µM (active)

Then Cn1cnc2c(F)c(Nc3ccc(Br)cc3Cl)c(C(=O)NOCCO)cc21 ? 1.18 µM (active)

Then CO[C@@H]1[C@H](N(C)C(=O)c2ccccc2)C[C@H]2O[C@]1(C)n1c3ccccc3c3c4c(c5c6ccccc6n2c5c31)C(=O)NC4 ? 8.33 µM (active)

Then O=C1CCC(N2C(=O)c3ccccc3C2=O)C(=O)N1 (configuration not stated) ? 23.5 µM (active)

Then CC[C@H](Nc1ncnc2nc[nH]c12)c1nc2cccc(F)c2c(=O)n1-c1ccccc1 ? 16.6 µM (active)

Then O=C1[C@H](Cc2ccc(O)cc2)N2C(=O)CCN(C(=O)NCc3ccccc3)[C@H]2CN1Cc1cccc2ccccc12 ? 6.62 µM (active)

Then CC(C)(Sc1ccc(CCN(CCCCC2CCCCC2)C(=O)NC2CCCCC2)cc1)C(=O)O ? 14.8 µM (active)

---

I'd appreciate it if you could supply activity, negative = cell killing values for the items below.
Assay Details: Drug repurposing screens with cells derived from glioblastoma tumor samples (AID 1345199); further: on the % scale 0 is the no-effect control and ±100 the full control effect; nearly all actives have a fitted effect of over 40% in size
Stated Conditions: GBM patient neurospheres viability, ATP luminescence, 48 h; at 45.9 µM (top of the series); tumour line B
Results filed as inconclusive are left out.
Number in %, nothing else.

Query (compound): CCCc1nn(C)c2c(=O)[nH]c(-c3cc(S(=O)(=O)N4CCN(C)CC4)ccc3OCC)nc12 ; field requested: activity, negative = cell killing -8.65

Then O=NN(CCCl)C(=O)NCCCl ? -7.98

Then C1COC(NC(C2CC2)C2CC2)=N1 ? -27.8

Then CNC[C@H](O)c1cccc(O)c1 ? -2.77

Then CCCC(CCC)C(=O)O ? -7.18

Then Cc1ccc(-n2nc(C(C)(C)C)cc2NC(=O)Nc2ccc(OCCN3CCOCC3)c3ccccc23)cc1 ? 12.9

Then CC(C[N+](C)(C)C)OC(N)=O (stereo unspecified) ? -0.814

Then CCc1ccc(CCOc2ccc(CC3SC(=O)NC3=O)cc2)nc1 (stereo unspecified) ? -10.3

Then NC(=O)c1cnccn1 ? -8.76

Then O=C1CCc2cc(OCCCCc3nnnn3C3CCCCC3)ccc2N1 ? -16.9

Then Cc1[nH]c(=O)c(C#N)cc1-c1ccncc1 ? -10.7

Then CCCc1nc2c(C)cc(-c3nc4ccccc4n3C)cc2n1Cc1ccc(-c2ccccc2C(=O)O)cc1 ? -13.6

Then Cc1cn[nH]c1 ? 0.573

Then COc1ccc2nc(S(=O)Cc3ncc(C)c(OC)c3C)[nH]c2c1 (stereo unspecified) ? -19.3

Then N[C@@H]1CONC1=O ? -2.69

Then NS(=O)(=O)c1cc2c(cc1Cl)NC=NS2(=O)=O ? -4.14

---

Assay Details: qHTS drug screen for cell cycle checkpoint inhibitors in PARPi-resistant BRCA-mutant ovarian cancer cell lines. (AID 1963452)
Stated Conditions: PEO1/OlaR viability, CellTiter-Glo luminescence, 96 h; measured here: PEO1 parental Z-AUC; stronger effect = lower value
Binned Z-AUC; ranges: category 1 (below -0.3), category 2 (-0.3 to below 0.6), category 3 (0.6 or more)

Assign a category based on measured Z-AUC for Cc1ccnc(NS(=O)(=O)c2ccc(NC(=O)Nc3ccc(S(=O)(=O)Nc4nccc(C)n4)cc3)cc2)n1 and give only the class name. category 1

Then CN(C)C(=O)c1ccc(S(=O)(=O)c2ccc(NC(=O)[C@@](C)(O)C(F)(F)F)c(Cl)c2)cc1 ? category 2

Then CCn1c(-c2nonc2N)nc2c(C#CC(C)(C)O)ncc(OC[C@H]3CCCNC3)c21 ? category 3

Then CC(=O)NC(C)c1ccc(Oc2ccc(OC(C)C)cc2)cc1 (stereo not given) ? category 2

Then CC(C[N+](C)(C)C)OC(N)=O (stereo not given) ? category 3

Then Cc1cc(Nc2nc(N[C@@H](C)c3ncc(F)cn3)ncc2Cl)n[nH]1 ? category 1

Then CC(=O)Oc1ccccc1C(=O)O ? category 3

Then CN(C(=O)c1ccc(F)cc1C(F)(F)F)C1CCN(c2nnc(-c3ccnn3C)c3ccccc23)CC1 ? category 1

Then O=C(Nc1ccc(F)c(C(F)(F)F)c1)Nc1nnc(-c2ccncc2)s1 ? category 1

---

System Name: Cytochrome P450 2C9 (Homo sapiens)
Assay Details: qHTS Assay for Inhibitors and Substrates of Cytochrome P450 2C9 (AID 883); further: nearly all actives have a fitted effect of over 60% in size
Stated Conditions: recombinant CYP2C9, luciferin-H luminescence, 60 min; series mostly up to 57.1 µM
Records with an inconclusive call do not appear. Activity calls are given as the source filed them. The call rests on the fitted dose curve; in most records, active means well fitted inhibition curve with a large enough effect; inconclusive means small, poorly fitted or top-dose-only effect; inactive means no such curve, though single readings can be large or run the other way.
Output constraint: value belongs to active, inactive

Query: recorded result category for CCOC(=O)C1=C[C@@]2(CC)CCCN3CCc4c(n1c1ccccc41)[C@H]32 in this test inactive

Then N[C@@H]1CONC1=O ? inactive

Then CC(=O)Oc1ccccc1C(=O)O ? inactive

Then NC(=O)c1cnccn1 ? inactive

Then O=c1[nH]cnc2[nH]ncc12 ? inactive

Then CC(C)(Sc1ccc(CCN(CCCCC2CCCCC2)C(=O)NC2CCCCC2)cc1)C(=O)O ? active

Then Clc1cccc(Cl)c1NC1=NCCN1 ? active

---

System: KB-3-1
Assay Details: Cytotoxic Profiling of Annotated Libraries Using Quantitative High-Throughput Screening (AID 1296008); further: on the % scale 0 is the no-effect control and ±100 the full control effect; nearly all actives have a fitted effect of over 60% in size
Stated Conditions: Five cell lines viability, CellTiter-Glo ATP luminescence, 48-72 h; stronger effect = lower value
Records with an inconclusive call do not appear.
I'd appreciate it if you could supply max response values for the items below.
Number in %, nothing else.

Query (molecule): Cn1c(=O)c(F)c(Nc2ccc(I)cc2F)c2c(=O)n(C[C@@H](O)CO)cnc21 ; field requested: max response -4.57

Then CCCS(=O)(=O)Nc1ccc(F)c(C(=O)c2c[nH]c3ncc(-c4ccc(Cl)cc4)cc23)c1F ? 4.09

Then COc1ccc([C@@H]2CC(=O)c3c(O)cc(O[C@@H]4O[C@H](CO[C@@H]5O[C@@H](C)[C@H](O)[C@@H](O)[C@@H]5O)[C@@H](O)[C@H](O)[C@@H]4O)cc3O2)cc1O ? 2.27

Then COc1ccc2c3n(c(=NC(=O)c4cccnc4)nc2c1OC)CCN3 ? -17.8

Then CC(C=CC1=C(C)CCCC1(C)C)=CC=CC(C)=CC(=O)O ? 4.44

Then O=S(=O)(N=Cc1c(O)ccc2ccccc12)c1cccs1 ? 0.0321

Then CC(C)(C)NCC(O)c1ccc(O)c(CO)c1 (configuration not stated) ? -0.699

Then O=C(O)[C@@H](c1ccc(OCc2ccc3ccccc3n2)cc1)C1CCCC1 ? -4.52

Then OCCC#Cc1nc(-c2ccc(F)cc2)c(-c2ccncc2)n1CCCc1ccccc1 ? 6.14

Then Nc1nc2ccc(OC(F)(F)F)cc2s1 ? -6.76

Then CCCn1c(=O)c2[nH]c(C34CC5CC3C[C@@H](C5)C4)nc2n(CCC)c1=O ? 5.05

Then CNC(=O)c1ccc(C)c(-n2c(C)cc(OCc3ccc(F)cc3F)c(Br)c2=O)c1 ? -4.9
